Molecular target: T1, recombinant antigen of the extracellular region of CD47 (Sino Biological, Cat: 12283-H08H) (human, UniProt Q08722 19-139)
T1 construct: extracellular domain; also called recombinant CD47 extracellular region; CD47 recombinant protein
T1 sequence (Q08722 19-139 limits assumed): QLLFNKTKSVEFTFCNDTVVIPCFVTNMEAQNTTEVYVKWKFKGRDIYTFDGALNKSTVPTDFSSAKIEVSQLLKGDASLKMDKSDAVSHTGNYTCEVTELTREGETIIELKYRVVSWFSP
Experiment: Fortebio BLI, antibody on AHC sensor, CD47 extracellular region 100 nM;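 further: antibody held on the sensor through anti-human Fc capture, CD47 antigen in solution, association and dissociation phases each lasting 300 s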
Experimental readout: pKd
Expect pKd as a plain number equal to -log10 of the molar concentration.

Below, each entry is followed by its recorded pKd result.
1. hz140-Hm6/hz182-L (antibody, V domains shown) VH: QVQLVQSGAEVKKPGASVKVSCKASGYKFTNYVMHWVRQAPGQRLEWMGYINPGNDGIKYNEKFTGRVTITRDTSASTAYMELSSLRSEDTAVYYCAREGDFYANYGRLGFAYWGQGTLVTVSS VL: DIQMTQSPSSLSASVGDRVTITCRASQDISNYLNWYQQKPGKAPKLLLYYTSRLHSGVPSRFSGSGSGTDYTLTISSLQPEDFATYFCQQGAGRPYTFGGGTKVEIK = 8.07
2. hz140-Hm2/hz182-L (antibody, V domains shown) VH: QVQLVQSGAEVKKPGASVKVSCKASGYKFTSYVMHWVRQAPGQRLEWMGYINPYNDGIKYNEKFTGRVTITRDTSASTAYMELSSLRSEDTAVYYCAREGDFYANYGRLGFAYWGQGTLVTVSS VL: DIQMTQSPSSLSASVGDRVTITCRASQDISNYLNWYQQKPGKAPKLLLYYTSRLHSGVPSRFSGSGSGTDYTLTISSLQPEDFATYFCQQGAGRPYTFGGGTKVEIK = 8.77
3. hz140-Hm7/hz182-L (antibody, V domains shown) VH: QVQLVQSGAEVKKPGASVKVSCKASGYKFTNYVMHWVRQAPGQRLEWMGYINPYNDGIKYNEKFQGRVTITRDTSASTAYMELSSLRSEDTAVYYCAREGDFYANYGRLGFAYWGQGTLVTVSS VL: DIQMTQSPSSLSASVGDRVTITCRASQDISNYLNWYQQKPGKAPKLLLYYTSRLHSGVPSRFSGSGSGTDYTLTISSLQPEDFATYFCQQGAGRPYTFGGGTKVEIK = 7.21

Consider hz140-Hm4/hz182-L (antibody, V domains shown) VH: QVQLVQSGAEVKKPGASVKVSCKASGYKFTNYVMSWVRQAPGQRLEWMGYINPYNDGIKYNEKFTGRVTITRDTSASTAYMELSSLRSEDTAVYYCAREGDFYANYGRLGFAYWGQGTLVTVSS VL: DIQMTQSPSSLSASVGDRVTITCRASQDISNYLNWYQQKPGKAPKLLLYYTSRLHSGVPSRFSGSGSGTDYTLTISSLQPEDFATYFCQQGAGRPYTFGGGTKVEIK . Its measured pKd is 8.22
